tested on: Staphylococcus aureus; assay: Antimicrobial activity against Staphylococcus aureus ATCC […] after 18 hrs by agar-well diffusion assay; assay type: functional; conditions: ATCC 25923
The source made the active and inactive calls. The calls are words filed in the database; no cut-off is given here.
Test readout: inhibition zone (IZ)

Example cases with answers are listed next.
CSc1nnc(Cn2nc(-c3ccc(C)cc3)n(N)c2=O)n1-c1ccccc1 = inactive
Cc1ccc(-c2nn(Cc3nnc(Nc4ccccc4)s3)c(=O)n2N)cc1 = inactive
Cc1ccc(-c2nn(Cc3nnc(Nc4ccc(F)cc4)s3)c(=O)n2N)cc1 = inactive
Cc1ccc(-c2nn(Cc3nn(CN4CCN(C)CC4)c(=S)n3-c3ccccc3)c(=O)n2N)cc1 = inactive
Cc1ccc(-c2nn(Cc3nn(CNCCN4CCOCC4)c(=S)n3-c3ccccc3)c(=O)n2N)cc1 = inactive

Incoming: Which inhibition zone (IZ) is reported for this compound? `COc1ccc(-n2c(Cn3nc(-c4ccc(C)cc4)n(N)c3=O)nnc2SC)cc1`
Outgoing: inactive

Incoming: Likewise for `Cc1ccc(-c2nn(Cc3nn(CN4CCN(C)CC4)c(=S)n3-c3ccc(F)cc3)c(=O)n2/N=C/c2ccc(F)cc2)cc1` ?
Outgoing: inactive

Incoming: Please give the result for `Cc1ccc(-c2nn(Cc3nnc(N(C)c4ccccc4)s3)c(=O)n2N)cc1` too.
Outgoing: inactive

====

tested on: Pseudomonas aeruginosa; assay: Antimicrobial activity against Pseudomonas aeruginosa ATCC 27853 after 18 hrs by agar-well diffusion assay; type: functional
Activity calls are given as the source filed them. No cut-off for these calls is given here.
Test readout: inhibition zone (IZ)

Known results for compounds:
Cc1ccc(-c2nn(Cc3nn(CNCCN4CCOCC4)c(=S)n3-c3ccccc3)c(=O)n2N)cc1 = inactive
COc1ccc(-n2c(S)nnc2Cn2nc(-c3ccc(C)cc3)n(N)c2=O)cc1 = 30 mm
COc1ccc(Nc2nnc(Cn3nc(-c4ccc(C)cc4)n(N)c3=O)s2)cc1 = >30 mm
Cc1ccc(-c2nn(Cc3nnc(N(C)c4ccccc4)s3)c(=O)n2N)cc1 = inactive
COc1ccc(NC(=S)NNC(=O)Cn2nc(-c3ccc(C)cc3)n(N)c2=O)cc1 = 35 mm

Incoming: Param item = `Cc1ccc(-c2nn(Cc3nnc(S)n3-c3ccccc3)c(=O)n2N)cc1` ; retrieve measured inhibition zone (IZ).
Outgoing: 30 mm

Incoming: Same for `Cc1ccc(-c2nn(Cc3nnc(S)n3-c3ccc(F)cc3)c(=O)n2/N=C/c2ccc(F)cc2)cc1`
Outgoing: 30 mm

Incoming: Next record, please: `Cc1ccc(-c2nn(Cc3nnc(S)n3-c3ccccc3)c(=O)n2/N=C/c2ccc(F)cc2)cc1`
Outgoing: 30 mm

====

test system: Enterococcus faecalis; experiment: Antimicrobial activity against Enterococcus faecalis ATCC 29212 after 18 hrs by agar-well diffusion assay; format: functional
Calls of active or inactive are those of the source. The rule behind the calls is not given here.
Test readout: inhibition zone (IZ)

The cases that follow already have their inhibition zone (IZ) on record.
COc1ccc(Nc2nnc(Cn3nc(-c4ccc(C)cc4)n(N)c3=O)s2)cc1 = 20 mm
COc1ccc(NC(=S)NNC(=O)Cn2nc(-c3ccc(C)cc3)n(N)c2=O)cc1 = 28 mm
Cc1ccc(-c2nn(Cc3nnc(S)n3-c3ccccc3)c(=O)n2N)cc1 = 20 mm
Cc1ccc(-c2nn(Cc3nnc(N(C)c4ccccc4)s3)c(=O)n2N)cc1 = inactive

Incoming: // returns reported inhibition zone (IZ) for input `Cc1ccc(-c2nn(Cc3nnc(S)n3-c3ccc(F)cc3)c(=O)n2N)cc1`
Outgoing: 30 mm

Incoming: // next record `COc1ccc(-n2c(S)nnc2Cn2nc(-c3ccc(C)cc3)n(N)c2=O)cc1`
Outgoing: 25 mm

Incoming: Similarly, `Cc1ccc(-c2nn(CC(=O)NNC(=S)Nc3ccccc3)c(=O)n2N)cc1` ?
Outgoing: inactive

Incoming: Same again, this time with `COc1ccc(/C=N/n2c(-c3ccc(C)cc3)nn(Cc3nnc(S)n3-c3ccc(F)cc3)c2=O)cc1`
Outgoing: 24 mm

Incoming: Repeat for the following molecule: `Cc1ccc(-c2nn(Cc3nnc(S)n3-c3ccccc3)c(=O)n2/N=C/c2ccc(F)cc2)cc1`
Outgoing: 20 mm

Incoming: Here is the next molecule: `Cc1ccc(-c2nn(Cc3nnc(S)n3-c3ccc(F)cc3)c(=O)n2/N=C/c2ccc(F)cc2)cc1`
Outgoing: 20 mm

Incoming: Next entry: `Cc1ccc(-c2nn(Cc3nnc(Nc4ccccc4)s3)c(=O)n2N)cc1`
Outgoing: inactive

Incoming: Next: `CCSc1nnc(Cn2nc(-c3ccc(C)cc3)n(N)c2=O)n1-c1ccc(F)cc1`
Outgoing: inactive

Incoming: Next up: `Cc1ccc(-c2nn(CC(=O)NNC(=S)Nc3ccc(F)cc3)c(=O)n2N)cc1`
Outgoing: 30 mm

Incoming: Same read-out for `COc1ccc(-n2c(Cn3nc(-c4ccc(C)cc4)n(N)c3=O)nnc2SC)cc1` ?
Outgoing: inactive

Incoming: Quick one: `CSc1nnc(Cn2nc(-c3ccc(C)cc3)n(N)c2=O)n1-c1ccccc1`
Outgoing: inactive

Incoming: Same thing, different molecule: `Cc1ccc(-c2nn(Cc3nn(CN4CCN(C)CC4)c(=S)n3-c3ccccc3)c(=O)n2N)cc1`
Outgoing: inactive

Incoming: What would you report for `Cc1ccc(-c2nn(Cc3nn(CNCCN4CCOCC4)c(=S)n3-c3ccccc3)c(=O)n2N)cc1` ?
Outgoing: inactive

Incoming: Same thing, different molecule: `Cc1ccc(-c2nn(Cc3nn(CN4CCN(C)CC4)c(=S)n3-c3ccc(F)cc3)c(=O)n2/N=C/c2ccc(F)cc2)cc1`
Outgoing: inactive

Incoming: Next: `Cc1ccc(-c2nn(Cc3nnc(Nc4ccc(F)cc4)s3)c(=O)n2N)cc1`
Outgoing: inactive

====

tested on: Candida tropicalis; assay: Antimicrobial activity against Candida tropicalis ATCC 13803 after 18 hrs by agar-well diffusion assay; assay type: functional
Calls of active or inactive are those of the source. No cut-off for these calls is given here.
Test readout: inhibition zone (IZ)

CSc1nnc(Cn2nc(-c3ccc(C)cc3)n(N)c2=O)n1-c1ccccc1 = inactive
Cc1ccc(-c2nn(Cc3nnc(Nc4ccc(F)cc4)s3)c(=O)n2N)cc1 = inactive
COc1ccc(Nc2nnc(Cn3nc(-c4ccc(C)cc4)n(N)c3=O)s2)cc1 = inactive
Cc1ccc(-c2nn(Cc3nnc(Nc4ccccc4)s3)c(=O)n2N)cc1 = inactive
Cc1ccc(-c2nn(Cc3nnc(S)n3-c3ccc(F)cc3)c(=O)n2N)cc1 = inactive

Incoming: What does the data say about its inhibition zone (IZ)? Entry: `CCSc1nnc(Cn2nc(-c3ccc(C)cc3)n(N)c2=O)n1-c1ccc(F)cc1`
Outgoing: 6 mm

Incoming: Request: `COc1ccc(/C=N/n2c(-c3ccc(C)cc3)nn(Cc3nnc(S)n3-c3ccc(F)cc3)c2=O)cc1`
Outgoing: inactive

Incoming: Can you handle `Cc1ccc(-c2nn(Cc3nnc(N(C)c4ccccc4)s3)c(=O)n2N)cc1` next?
Outgoing: 6 mm

Incoming: Input `Cc1ccc(-c2nn(CC(=O)NNC(=S)Nc3ccc(F)cc3)c(=O)n2N)cc1`
Outgoing: inactive

Incoming: Further, for `Cc1ccc(-c2nn(Cc3nnc(S)n3-c3ccccc3)c(=O)n2/N=C/c2ccc(F)cc2)cc1` ?
Outgoing: inactive

====

system: Bacillus cereus; assay: Antimicrobial activity against Bacillus cereus 702 Roma after 18 hrs by agar-well diffusion assay; type: functional
Activity calls are given as the source filed them. The calls are words filed in the database; no cut-off is given here.
Test readout: inhibition zone (IZ)

Worked examples, 5 molecules total:
Cc1ccc(-c2nn(Cc3nnc(S)n3-c3ccccc3)c(=O)n2N)cc1 = 20 mm
COc1ccc(-n2c(S)nnc2Cn2nc(-c3ccc(C)cc3)n(N)c2=O)cc1 = 25 mm
COc1ccc(/C=N/n2c(-c3ccc(C)cc3)nn(Cc3nnc(S)n3-c3ccc(F)cc3)c2=O)cc1 = 22 mm
Cc1ccc(-c2nn(Cc3nn(CN4CCN(C)CC4)c(=S)n3-c3ccccc3)c(=O)n2N)cc1 = inactive
COc1ccc(-n2c(Cn3nc(-c4ccc(C)cc4)n(N)c3=O)nnc2SC)cc1 = inactive

Incoming: For `COc1ccc(NC(=S)NNC(=O)Cn2nc(-c3ccc(C)cc3)n(N)c2=O)cc1` , what is its reported inhibition zone (IZ)?
Outgoing: 22 mm

====

test system: Pseudomonas aeruginosa; assay: Antimicrobial activity against Pseudomonas aeruginosa ATCC 27853 after 18 hrs by agar-well diffusion assay; format: functional
Calls of active or inactive are those of the source. The calls are words filed in the database; no cut-off is given here.
Test readout: inhibition zone (IZ)

These recorded examples may help you get a feel for the data.
COc1ccc(-n2c(Cn3nc(-c4ccc(C)cc4)n(N)c3=O)nnc2SC)cc1 = inactive
Cc1ccc(-c2nn(Cc3nnc(Nc4ccc(F)cc4)s3)c(=O)n2N)cc1 = inactive
Cc1ccc(-c2nn(Cc3nn(CN4CCN(C)CC4)c(=S)n3-c3ccccc3)c(=O)n2N)cc1 = inactive
Cc1ccc(-c2nn(CC(=O)NNC(=S)Nc3ccc(F)cc3)c(=O)n2N)cc1 = 35 mm

Incoming: Given the compound `Cc1ccc(-c2nn(Cc3nnc(S)n3-c3ccc(F)cc3)c(=O)n2N)cc1` , what is its reported inhibition zone (IZ)?
Outgoing: 35 mm

Incoming: Ok, now `Cc1ccc(-c2nn(Cc3nnc(Nc4ccccc4)s3)c(=O)n2N)cc1`
Outgoing: inactive

Incoming: How about `CSc1nnc(Cn2nc(-c3ccc(C)cc3)n(N)c2=O)n1-c1ccccc1` ?
Outgoing: inactive

Incoming: Query `Cc1ccc(-c2nn(Cc3nn(CN4CCN(C)CC4)c(=S)n3-c3ccc(F)cc3)c(=O)n2/N=C/c2ccc(F)cc2)cc1` next
Outgoing: inactive

Incoming: Next compound up: `Cc1ccc(-c2nn(CC(=O)NNC(=S)Nc3ccccc3)c(=O)n2N)cc1`
Outgoing: inactive

Incoming: Try this compound next: `CCSc1nnc(Cn2nc(-c3ccc(C)cc3)n(N)c2=O)n1-c1ccc(F)cc1`
Outgoing: inactive

Incoming: Another: `COc1ccc(/C=N/n2c(-c3ccc(C)cc3)nn(Cc3nnc(S)n3-c3ccc(F)cc3)c2=O)cc1`
Outgoing: 35 mm
